- TARGET SYSTEM: T1, human GIP receptor (human, UniProt P48546 22-466)
- T1 sequence (looked up): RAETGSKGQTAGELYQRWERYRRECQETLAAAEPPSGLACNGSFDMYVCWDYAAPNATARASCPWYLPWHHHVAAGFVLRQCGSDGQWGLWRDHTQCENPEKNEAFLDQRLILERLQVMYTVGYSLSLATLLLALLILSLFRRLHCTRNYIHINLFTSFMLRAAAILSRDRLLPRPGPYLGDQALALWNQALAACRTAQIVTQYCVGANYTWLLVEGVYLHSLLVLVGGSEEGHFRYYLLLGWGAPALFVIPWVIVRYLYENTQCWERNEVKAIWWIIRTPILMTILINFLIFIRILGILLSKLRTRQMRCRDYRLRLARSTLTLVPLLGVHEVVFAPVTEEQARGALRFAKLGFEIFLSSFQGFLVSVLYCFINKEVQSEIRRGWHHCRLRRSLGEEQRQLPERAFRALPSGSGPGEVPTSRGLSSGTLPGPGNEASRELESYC
- ASSAY TEXT: cell-based or functional assay
Response field class: string, computed from recorded cAMP EC50 by ranges low group: < 0.01 nM; middle group: ≥ 0.01 nM and < 0.03 nM; high group: ≥ 0.03 nM

[
  {
    "BINDER": "IP127 (Fc fusion) YSEGTFTSDVSSYLEEEAVREFIEWLLAGGAAAGGSGSTASSGSGSATGGGGAATHTCPPCPAPEF",
    "GROUP LABEL": "high group"
  },
  {
    "BINDER": "IP200 (Fc fusion) YSQGTFTSDYSKILEEEAVRLFIEWLVKGPAAAGGSGSTASSGSGSATGGGGAATHTCPPCPAPEF",
    "GROUP LABEL": "middle group"
  },
  {
    "BINDER": "IP354 (Fc fusion) YSEGMHTSDFSKLLEEEAVRLFIEWLLAGGGGGGSGGGGSGGGGSGGGGSATHTCPPC",
    "GROUP LABEL": "middle group"
  },
  {
    "BINDER": "IP245 (Fc fusion) YSEGTFTSDYSIAMDEEAVRLFIEWLVKGPAAAGGSGSTASSGSGSATGGGGAATHTCPPCPAPEF",
    "GROUP LABEL": "high group"
  },
  {
    "BINDER": "IP390 (Fc fusion) YSEGTFTSDYSKLLEEEAVRLFIEWLVKGPGGGGGSGGGGSGGGGSGGGGSGGGGSACPPC",
    "GROUP LABEL": "low group"
  },
  {
    "BINDER": "IP266 (Fc fusion) YSEGTFTSDYSKLLEEEAVRLFIEWLLAGAPPGGSGGGGSGGGGSGGGGSATHTCPPCPAPEF",
    "GROUP LABEL": "middle group"
  },
  {
    "BINDER": "IP326 (Fc fusion) YSEGTFTSDYSKLLEEEAVRLFIEWLLAGGGGGGGSGGGGSGGGGSGGGGSGGGGSA",
    "GROUP LABEL": "middle group"
  },
  {
    "BINDER": "IP278 (Fc fusion) YSEGTFTSDYSKLLEEEAVRLFIEWLVKGPPSSGAPPPSGGGGGSGGGGSGGGGSGGGGSATHTCPPC",
    "GROUP LABEL": "middle group"
  },
  {
    "BINDER": "IP325 (Fc fusion) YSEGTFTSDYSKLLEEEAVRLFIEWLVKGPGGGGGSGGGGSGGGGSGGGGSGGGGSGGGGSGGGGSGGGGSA",
    "GROUP LABEL": "high group"
  },
  {
    "BINDER": "IP280 (Fc fusion) YSEGTFTSDYSKLLEEEAVRLFIEWLVKGGPSSGAPPPSGGGGGSGGGGSGGGGSGGGGSATHTCPPC",
    "GROUP LABEL": "low group"
  }
]

The origin of these recorded values is patent US20160185837A1.
